# target.of.assay: NMDA receptor-ion channel complex
# Construct: other: antagonist alone, no glutamate or glycine added; other: combined addition, 50 μM of each
# measurement.protocol: [3H]TCP binding assay on washed hippocampal membranes
# Set-up: species or system rat
# test.parameters: antagonist alone, no glutamate or glycine added; read-out: IC50, inhibition of [3H]TCP binding
pIC50: −log10 of the molar value.
This section presents compounds with their documented pIC50 values.
readout: pIC50

1. N[C@H](CCCP(=O)(O)O)C(=O)O [D-AP5, D-(−)-2-amino-5-phosphonovaleric acid]; 5.85
2. O=C(O)c1cc(O)c2ccc(Cl)cc2n1 [7-Cl KYNA, 7-chlorokynurenic acid]; 5.22
